# OD450 at 0.1 nM per record follows
measurement_target: T1, human MSLN-FL-his protein (human, UniProt Q13421 296-580)
T1 construct: also called human MSLN full-length protein; hMSLN-FL-his; not shown: His tag
T1 sequence (Q13421 other isoform, or with tags, fused parts or gaps): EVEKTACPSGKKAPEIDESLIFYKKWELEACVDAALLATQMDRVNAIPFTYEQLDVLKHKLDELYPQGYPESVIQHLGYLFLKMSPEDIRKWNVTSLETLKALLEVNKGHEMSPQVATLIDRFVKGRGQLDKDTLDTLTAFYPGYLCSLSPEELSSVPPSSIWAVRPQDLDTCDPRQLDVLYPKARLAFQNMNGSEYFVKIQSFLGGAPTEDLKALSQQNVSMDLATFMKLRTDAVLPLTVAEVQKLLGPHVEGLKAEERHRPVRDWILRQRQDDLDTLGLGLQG
protocol_summary: ELISA, coated MSLN full-length;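 further: binding of chimeric antibodies to plate-bound antigen, read by TMB colour after acid stop, antibody incubated 2 h at 37 °C, negative control antibody run alongside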
Output spec: scalar in OD450, unitless text.

Solved cases (3 shown):
>>> reading("S009-F2.47.1 (antibody, human IgG1, kappa, V domains shown, Human-murine chimeric antibody, human IgG1/kappa constant regions) VH: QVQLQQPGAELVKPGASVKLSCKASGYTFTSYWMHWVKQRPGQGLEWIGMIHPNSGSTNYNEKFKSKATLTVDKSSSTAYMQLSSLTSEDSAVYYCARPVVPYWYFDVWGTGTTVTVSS VL: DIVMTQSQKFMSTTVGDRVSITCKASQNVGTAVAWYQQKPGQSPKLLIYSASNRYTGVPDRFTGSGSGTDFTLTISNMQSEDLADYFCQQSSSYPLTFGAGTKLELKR")
1.78
>>> reading("S009-F2-56.12 (antibody, human IgG1, kappa, V domains shown, Human-murine chimeric antibody, human IgG1/kappa constant regions) VH: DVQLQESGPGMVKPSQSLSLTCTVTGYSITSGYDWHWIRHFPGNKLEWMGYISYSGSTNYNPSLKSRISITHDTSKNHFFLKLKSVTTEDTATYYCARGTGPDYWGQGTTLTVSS VL: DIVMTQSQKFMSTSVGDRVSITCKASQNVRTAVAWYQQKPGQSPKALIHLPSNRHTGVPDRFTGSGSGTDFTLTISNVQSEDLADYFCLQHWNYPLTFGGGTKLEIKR")
0.37
>>> reading("S009-F2.38.12 (antibody, human IgG1, kappa, V domains shown, Human-murine chimeric antibody, human IgG1/kappa constant regions) VH: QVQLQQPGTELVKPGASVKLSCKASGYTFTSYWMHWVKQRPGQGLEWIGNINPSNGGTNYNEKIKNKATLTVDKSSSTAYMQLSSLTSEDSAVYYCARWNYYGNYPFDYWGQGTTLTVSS VL: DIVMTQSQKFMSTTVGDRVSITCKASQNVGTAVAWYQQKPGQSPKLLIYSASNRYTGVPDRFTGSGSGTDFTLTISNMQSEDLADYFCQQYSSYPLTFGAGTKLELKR")
1.85

Req: What measured OD450 at 0.1 nM goes with S009-F2.23.12 (antibody, human IgG1, kappa, V domains shown, Human-murine chimeric antibody, human IgG1/kappa constant regions) VH: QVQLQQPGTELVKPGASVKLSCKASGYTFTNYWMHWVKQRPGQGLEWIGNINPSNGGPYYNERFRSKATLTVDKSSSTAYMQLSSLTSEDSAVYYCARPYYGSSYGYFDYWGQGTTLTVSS VL: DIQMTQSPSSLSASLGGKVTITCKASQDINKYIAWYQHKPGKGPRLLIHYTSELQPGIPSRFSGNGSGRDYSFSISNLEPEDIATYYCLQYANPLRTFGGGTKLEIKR ?
Resp: 1.27

Req: What measured OD450 at 0.1 nM goes with S009-F2.16.10 (antibody, human IgG1, kappa, V domains shown, Human-murine chimeric antibody, human IgG1/kappa constant regions) VH: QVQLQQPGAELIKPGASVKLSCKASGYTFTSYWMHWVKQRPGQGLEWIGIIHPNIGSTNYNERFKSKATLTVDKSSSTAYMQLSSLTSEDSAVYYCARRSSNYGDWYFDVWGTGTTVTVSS VL: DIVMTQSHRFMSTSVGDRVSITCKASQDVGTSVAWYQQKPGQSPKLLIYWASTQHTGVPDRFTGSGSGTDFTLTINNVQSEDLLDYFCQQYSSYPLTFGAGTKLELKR ?
Resp: 1.71

Req: What measured OD450 at 0.1 nM goes with S009-F2.13.3 (antibody, human IgG1, kappa, V domains shown, Human-murine chimeric antibody, human IgG1/kappa constant regions) VH: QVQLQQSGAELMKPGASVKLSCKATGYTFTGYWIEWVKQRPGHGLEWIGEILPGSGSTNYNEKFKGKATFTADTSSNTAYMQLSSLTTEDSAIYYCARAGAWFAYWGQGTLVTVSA VL: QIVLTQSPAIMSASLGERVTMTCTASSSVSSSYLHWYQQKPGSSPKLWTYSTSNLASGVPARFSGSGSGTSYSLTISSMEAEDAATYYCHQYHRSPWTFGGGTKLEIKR ?
Resp: 1.3
